Source listed as a melting point compilation (Tetko et al.; mined from patent text by program, amines drawn as free bases though some values may be those of a salt).

REPORTED_METRIC: melting point

Query string: Return reported melting point; argument: "Nc1c(Cl)ncnc1NCc1ccccn1"
Result string: 140 °C

Query string: Another: "Cn1cc(Oc2ccccc2)c(=O)c(-c2ccc(Cl)c(C(F)(F)F)c2)c1"
Result string: 130 to 131 °C

Query string: Also "CCOC(=O)c1cn(-c2nnc(C)s2)c2nc(N3CC[C@H](N)C3)c(F)cc2c1=O" ?
Result string: 265 to 268 °C

Query string: Param item: CCOc1ccccc1OCC1CN=C(N)O1 (stereo not given)
Result string: 130 °C

Query string: Also, "COc1cc(Cc2cnc(NCCCCc3ncccc3OC)[nH]c2=O)ccn1" please.
Result string: 72 to 74 °C

Query string: Could you do the same for O=C(O)CN1C(=O)C(O)N(Cc2cccc([N+](=O)[O-])c2)C1=O (stereo not given) , please?
Result string: 123 to 125 °C

Query string: Would you kindly repeat that for O=C1NC(=O)C(c2ccc(Br)o2)O1 (stereo not given) ?
Result string: 126 to 129 °C

Query string: Please answer likewise for Cn1cc(C(=O)O)c(=O)c2cc3cc(F)c(N4CCNC(c5ccccc5)C4)c(F)c3nc21 (racemic)
Result string: 298 °C

Query string: Would you kindly repeat that for "Clc1nn2c(-c3ccccc3Br)nnc2c2ccccc12" ?
Result string: 203 °C

Query string: Input "CC1(C)CN(CC2Cc3nccnc3C2)c2nc(-c3ccncn3)cc(=O)n2C1"
Result string: 193 to 195 °C

Query string: // query: "COc1cc2c(Nc3ccc(Sc4nccn4C)c(Cl)c3)c(C#N)cnc2cc1-c1ccc(CN2CCOCC2)c(CN2CCOCC2)c1"
Result string: 228 to 230 °C

Query string: What do you have for "CCCc1c2c(cc3[nH]c(=O)c(=O)oc13)CCCC2" ?
Result string: 175 to 180 °C

Query string: And for "CCOC(=O)c1cccc(NC(=O)N2CCc3cc(SC)c(C(F)(F)F)cc32)c1" ?
Result string: 195 to 197 °C

Query string: # repeat for "COc1cc(Nc2c(C#N)cnc3cc(-c4ccc(C=O)o4)ccc23)c(Cl)cc1Cl"
Result string: > 250 °C

Query string: Same read-out for "O=C(c1ccc([N+](=O)[O-])cc1)N1Cc2ccc(C(=O)C(F)(F)F)n2Cc2ccccc21" ?
Result string: 169 to 170 °C

Query string: And the next one, "CN1C(C)(C)CC(NC(=O)c2ccc(-c3nc4cc(Cl)c(Cl)cc4[nH]3)c(O)c2)CC1(C)C" ?
Result string: > 250 °C

Query string: Also check "CCS(=O)(=O)Nc1cc(-n2nc3ccc(Cl)cn3c2=O)c(F)cc1Cl"
Result string: 120 to 122 °C

Query string: Similarly, OC(c1ccccc1)(c1ccc(C(F)(F)F)cc1)c1ncc[nH]1 (stereo not given) ?
Result string: 174 to 176 °C

Query string: Can you handle "N#Cc1cnc2cc3c(cc2c1Nc1ccc(F)c(Cl)c1)NCCO3" next?
Result string: 244 to 245 °C

Query string: Also, "NC1(C(=O)NOCc2ccccc2)CCCC1" please.
Result string: 94 to 96 °C
